The measured values listed here are drawn from patent US20060058320A1.

MEASURE: melting point

Recorded results for 3 molecules are shown here.
SMILES INPUT: CC(=O)NCCNC(=O)c1cc2nc(-c3ccco3)nn2c(N)n1
melting point: 233.8 to 234 °C

SMILES INPUT: Nc1nc(COc2ccncc2)cc2nc(-c3ccco3)nn12
melting point: > 300 °C

SMILES INPUT: COCCN(CCOC)C(=O)c1cc2nc(-c3ccco3)nn2c(N)n1
melting point: 190.5 to 190.8 °C

The record that follows has no melting point shown yet.
GET /values?readout=melting point&item= `Nc1nc(-c2cccs2)cc2nc(-c3ccco3)nn12`
232.2 to 232.3 °C

---

Structures can show the parent of a compound that is named as a salt.
melting point by entry:

COMPOUND: CCN1CCN(Cc2cc3nc(-c4ccco4)nn3c(N)n2)CC1 (as salt: hydrochloride) [Compound 48, trihydrochloride]
melting point: 262 to 262.4 °C

GET /values?readout=melting point&item= `COc1ccc(CNCc2ccccc2-c2cc3nc(-c4ccco4)nn3c(N)n2)cc1OC`
168 to 168.7 °C

GET /values?readout=melting point&item= `Nc1nc(C(=O)c2ccccc2)cc2nc(-c3ccco3)nn12`
229.2 to 229.7 °C

GET /values?readout=melting point&item= `Nc1nc(-c2ccco2)cc2nc(-c3ccco3)nn12`
250.2 to 250.4 °C

GET /values?readout=melting point&item= CCN1CCN(Cc2ccc(-c3cc4nc(-c5ccco5)nn4c(N)n3)cc2)CC1 (as salt: hydrochloride)
265 °C (dec.)

---

MEASUREMENT TARGET: adenosine A2A receptor (Rattus norvegicus, UniProt P30543)
Construct: from tissue; host or cells: rat corpus striatum membrane preparation
Sequence (P30543 whole entry): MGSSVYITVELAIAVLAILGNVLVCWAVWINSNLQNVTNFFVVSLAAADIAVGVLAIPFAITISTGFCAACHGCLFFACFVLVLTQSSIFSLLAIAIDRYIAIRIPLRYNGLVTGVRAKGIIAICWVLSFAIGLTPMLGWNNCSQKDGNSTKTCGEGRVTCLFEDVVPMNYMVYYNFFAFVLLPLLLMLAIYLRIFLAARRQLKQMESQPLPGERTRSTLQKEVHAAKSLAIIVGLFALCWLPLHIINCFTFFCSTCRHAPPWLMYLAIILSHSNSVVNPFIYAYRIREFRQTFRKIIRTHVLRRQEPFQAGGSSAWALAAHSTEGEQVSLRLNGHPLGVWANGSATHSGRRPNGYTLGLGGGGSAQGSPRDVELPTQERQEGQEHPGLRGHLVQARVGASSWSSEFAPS
MEASUREMENT NOTES: Adenosine A2A receptor binding test (3H-CGS 21680 binding)
MEASUREMENT SETUP: test compound 10^−7 mol/L; 3H-CGS 21680 binding, rat corpus striatum; read-out: A2A Receptor inhibition rate (%) at 10^−7 mol/L
Structures can show the parent of a compound that is named as a salt.
Kindly return 1 if reported inhibition at 0.1 µM is no lower than 60%; return -1 if it is lower.

COMPOUND: COc1cc(CNCc2ccc(-c3cc4nc(-c5ccco5)nn4c(N)n3)cc2)cc(OC)c1 [Compound 17, monohydrochloride]
MEASUREMENT TARGET: adenosine A2A receptor (Rattus norvegicus, UniProt P30543)
DISCRETE LABEL: 1

COMPOUND: N#CCCN(Cc1cccnc1)C(=O)c1cc2nc(-c3ccco3)nn2c(N)n1 [Compound 103]
MEASUREMENT TARGET: adenosine A2A receptor (Rattus norvegicus, UniProt P30543)
DISCRETE LABEL: -1

Is inhibition at 0.1 µM for COc1ccc(CNCc2cc3nc(-c4ccco4)nn3c(N)n2)cc1OC [Compound 42, dihydrochloride] at or above 60%?
1

Is inhibition at 0.1 µM for Nc1nc(C=O)cc2nc(-c3ccco3)nn12 [Compound 41] at or above 60%?
-1

Is inhibition at 0.1 µM for CN(Cc1ccccc1Cl)C(=O)c1cc2nc(-c3ccco3)nn2c(N)n1 [Compound 122, monohydrochloride] at or above 60%?
1

Is inhibition at 0.1 µM for CCCCc1cc2nc(-c3ccco3)nn2c(N)n1 [Compound 64] at or above 60%?
1
